# System: TK-10 renal
# assay name: NCI-60 one-dose screen, 48 h (100 = growth as untreated, 0 = no growth, -100 = all killed)
# test context: 10 µM unless noted
The panel holds about 83,000 compounds, 20% with a hit somewhere; the sample as a whole holds those more often.
We label by threshold. Values of growth strictly beneath 90% are MET. Values of 90% and up are NOT MET.

Field: below-cutoff. Rule: recorded growth strictly less than 90%. Subject: "CS(=O)(=O)Nc1cccc(C(=O)NCc2ccc(N3CCOCC3)cc2)c1"
NOT MET

And what about the molecule "CC1(C)N=C(N)N=C(N)N1c1cccc(OCCOc2cccc([N+](=O)[O-])c2)c1" ?
MET

Request: "COc1ccc(-c2c3c(N)c4c(nc3nc3c2c(C)nn3-c2ccccc2)CCCCC4)cc1"
MET

Would you mind doing "O=C(COc1ccc(/C=C2\CSc3ccccc3C2=O)cc1)c1ccc(Cl)cc1" as well?
NOT MET

Try this molecule too: "COc1cc(CNCCN2C(=O)c3ccc4c5c(ccc(c35)C2=O)C(=O)N(CCNCc2cc(OC)c(OC)c(OC)c2)C4=O)cc(OC)c1OC"
MET

Also "Cc1ccc2nc(NC(=O)CSC(=S)N3CCN(Cc4ccccc4)CC3)sc2c1" ?
MET

Can you check "CCCC1=NNC(=O)C1" next?
NOT MET

Another: "O=c1oc2ccccc2cc1-c1csc(N=Nc2c(O)[nH]c3ccc(Cl)cc23)n1"
NOT MET

Then this molecule: CC(C)NCC(O)COc1ccc(CCOCC2CC2)cc1 (stereo unspecified)
NOT MET

Ok, now CCCCOC(=O)C1OC(Oc2ccc3c(C)cc(=O)oc3c2)[C@@H](OC(C)=O)C(OC(C)=O)C1OC(C)=O (stereo partly specified)
NOT MET

For Cc1ccc(S(=O)(=O)N2CCc3ccc(O)c4c3C2CCc2ccccc2-4)cc1 (stereo unspecified) then?
NOT MET

Field entry: COc1cccc(C2CC(=O)Nc3cc4c(cc32)CCC4)c1OC (stereo unspecified)
MET

Next: "CC(=O)Nc1ccc(S(=O)(=O)N/N=C\c2ccc(Cl)c(Cl)c2)cc1"
NOT MET

Same thing, different molecule: "Cc1ccc(-c2c3c(N)c4c(nc3nc3c2c(C)nn3-c2ccccc2)CCCC4)cc1"
NOT MET

Now give it for "O=S(=O)(/N=C1C=C/C(=N\S(=O)(=O)c2ccccc2)c2ccccc2\1)c1ccccc1" too.
NOT MET

Then what about the molecule "Nc1cc2[nH]c(=O)c3ccccc3c2cc1Br" ?
MET

Okay, and "Cc1ccc(C)c2c1sc1nc3nc4sc5ccccc5n4c(=N)c3c(=O)n12" ?
NOT MET

Here is the next molecule: "COc1ccc(-c2nc3sc(C)cn3c2/C=C/C(=O)c2cc(OC)c(OC)c(OC)c2)cc1"
NOT MET

And the next one, "COc1nc2c(cc1S(=O)(=O)c1ccccc1)CCc1c-2cnn1-c1cccc(Cl)c1" ?
NOT MET

====

# Tested on: NCI-H460 lung
# assay name: NCI-60 one-dose screen, 48 h (100 = growth as untreated, 0 = no growth, -100 = all killed)
# test context: 10 µM unless noted
This is part of a sample that, as a whole, favours compounds with a hit. Of some 83,000 tested, about 20% had one in any assay.
Exercise: for every item that follows, state its recorded growth.
Kindly provide the numeric value in % only, without the unit symbol.

Could you share which growth value was measured for "COC(=O)[C@@]12CC[C@@H](C)[C@]3(C[C@@H](c4ccoc4)OC3=O)[C@H]1CC[C@@H]1O[C@@]12C" ?
103

Check "COc1ccc(-c2c3c(N)c4c(nc3nc3c2c(C)nn3-c2ccccc2)CCCCC4)cc1" too.
82.8

Consider next the compound "Fc1ccccc1Nc1ccc2nnc(-c3ccncc3)n2n1" in the same way.
103

Consider next the compound COc1cccc(C2C3=C(COC3=O)N(CCO)c3cc4c(cc32)OCO4)c1 (centres undefined) in the same way.
12.3

And "Clc1ccc(Nc2nc(Nc3ccccc3)nc(Nc3ccc(-c4cc(-c5ccc(Cl)cc5)on4)cc3)n2)cc1" ?
7.19

Follow-up entry: "CN(C)c1ccc(/C=C(\C#N)c2cc3ccccc3n2C)cc1"
5.38

Query "C[C@H]1C(=O)C23CCC1C[C@@]21O[C@@H]2C(C)(C)C=CC(=O)C23COC1=O" next
101

COc1cc(/C=C/C(=O)C2=C(/C=C/c3ccc(O)c(OC)c3)NC(=O)NC2c2ccc(O)c(OC)c2)ccc1O (centres undefined) ?
89.1

Now give it for "N#CCCN1CCN(CCC#N)C1=S" too.
103
